assayNotes: total protein half-life in vivo (active degradation + dilution); higher = more stable protein
conditionDetails: E. coli NCM3722 delta-smpB; growth: N-lim chemostat; doubling time 6 h
A collection of sequences and their measured total protein half-life in vivo
Write the value in h as a bare number.

Take a look at these entries with their results.
INSERT INTO measurements (seqstring, quantityname, assayvalue) VALUES
  ('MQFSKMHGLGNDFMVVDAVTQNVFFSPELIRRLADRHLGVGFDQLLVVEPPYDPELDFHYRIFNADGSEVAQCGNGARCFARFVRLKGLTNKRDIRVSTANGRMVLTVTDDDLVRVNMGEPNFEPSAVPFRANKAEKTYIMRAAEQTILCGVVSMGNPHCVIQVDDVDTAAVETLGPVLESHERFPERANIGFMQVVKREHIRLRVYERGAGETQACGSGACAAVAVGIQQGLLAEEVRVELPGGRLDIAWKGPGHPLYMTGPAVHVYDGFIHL [P0A6K1]', 'total protein half-life in vivo', 5.32),
  ('MAEAQNDPLLPGYSFNAHLVAGLTPIEANGYLDFFIDRPLGMKGYILNLTIRGQGVVKNQGREFVCRPGDILLFPPGEIHHYGRHPEAREWYHQWVYFRPRAYWHEWLNWPSIFANTGFFRPDEAHQPHFSDLFGQIINAGQGEGRYSELLAINLLEQLLLRRMEAINESLHPPMDNRVREACQYISDHLADSNFDIASVAQHVCLSPSRLSHLFRQQLGISVLSWREDQRISQAKLLLSTTRMPIATVGRNVGFDDQLYFSRVFKKCTGASPSEFRAGCEEKVNDVAVKLS [P0A9E0]', 'total protein half-life in vivo', 0.763),
  ('MLYIFDLGNVIVDIDFNRVLGAWSDLTRIPLASLKKSFHMGEAFHQHERGEISDEAFAEALCHEMALPLSYEQFSHGWQAVFVALRPEVIAIMHKLREQGHRVVVLSNTNRLHTTFWPEEYPEIRDAADHIYLSQDLGMRKPEARIYQHVLQAEGFSPSDTVFFDDNADNIEGANQLGITSILVKDKTTIPDYFAKVLC [P0A8Y3]', 'total protein half-life in vivo', 4.21);

Ask: Quick one: total protein half-life in vivo for MKLTIIRLEKFSDQDRIDLQKIWPEYSPSSLQVDDNHRIYAARFNERLLAAVRVTLSGTEGALDSLRVREVTRRRGVGQYLLEEVLRNNPGVSCWWMADAGVEDRGVMTAFMQALGFTAQQGGWEKC ?
Result: 3.46
